tested on: NCI-H2347; assay: relative viability (nuclei count vs DMSO), 5 days (fraction); higher = more cells survive; settings: first compound 2.53 µM
Just a reminder that ties go to 0: only relative viability strictly below 0.7 counts as 1.

Observe how each entry below is paired with its result.
Inquiry: Item Cc1cnc(-c2cnc(NCCNc3ccc(C#N)cn3)nc2-c2ccc(Cl)cc2Cl)[nH]1 + N=C(N)NC(=N)NCCc1ccccc1 [Phenformin] (partner 250 µM) : relative viability beneath 0.7, strictly?
Reply text: 1

Inquiry: relative viability strictly < 0.7 for this compound? O=c1[nH]c2ccccc2n1C1CCN(CCCC(c2ccc(F)cc2)c2ccc(F)cc2)CC1 [Pimozide] + CC(=O)c1c(C)c2cnc(Nc3ccc(N4CCNCC4)cn3)nc2n(C2CCCC2)c1=O [Palbociclib] (partner 0.5 µM)
Reply text: 1

Inquiry: Just wondering, is relative viability of Cc1cnc(-c2cnc(NCCNc3ccc(C#N)cn3)nc2-c2ccc(Cl)cc2Cl)[nH]1 + Nc1ncn([C@H]2C[C@H](O)[C@@H](CO)O2)c(=O)n1 [Decitabine] (partner 2 µM) below 0.7?
Reply text: 1

Inquiry: Dear reviewer, please state whether O=c1[nH]c2ccccc2n1C1CCN(CCCC(c2ccc(F)cc2)c2ccc(F)cc2)CC1 [Pimozide] + Nc1nc2[nH]cc(CCc3ccc(C(=O)N[C@@H](CCC(=O)O)C(=O)O)cc3)c2c(=O)[nH]1 [Pemetrexed] (partner 0.2 µM) has relative viability strictly beneath 0.7.
Reply text: 1

Inquiry: Does the reported relative viability of Cc1cnc(-c2cnc(NCCNc3ccc(C#N)cn3)nc2-c2ccc(Cl)cc2Cl)[nH]1 + C[C@]1(O)C[C@@H](c2nc(-c3ccc4ccc(-c5ccccc5)nc4c3)c3c(N)nccn32)C1 [Linsitinib] (partner 1 µM) stay below 0.7?
Reply text: 0

Others:
Inquiry: relative viability under 0.7? Item: Cc1cnc(-c2cnc(NCCNc3ccc(C#N)cn3)nc2-c2ccc(Cl)cc2Cl)[nH]1 + COc1cc2c(Oc3ccc(NC(=O)C4(C(=O)Nc5ccc(F)cc5)CC4)cc3F)ccnc2cc1OCCCN1CCOCC1 [Foretinib] (partner 0.25 µM)
Reply text: 0

Inquiry: Record O=c1[nH]c2ccccc2n1C1CCN(CCCC(c2ccc(F)cc2)c2ccc(F)cc2)CC1 [Pimozide] + CC(=O)Nc1cccc(-n2c(=O)n(C3CC3)c(=O)c3c(Nc4ccc(I)cc4F)n(C)c(=O)c(C)c32)c1 [Trametinib] (partner 0.02 µM) : is its relative viability strictly below 0.7?
Reply text: 1

Inquiry: Does this compound meet the criterion relative viability < 0.7? O=c1[nH]c2ccccc2n1C1CCN(CCCC(c2ccc(F)cc2)c2ccc(F)cc2)CC1 [Pimozide] + CS(=O)(=O)CCNCc1ccc(-c2ccc3ncnc(Nc4ccc(OCc5cccc(F)c5)c(Cl)c4)c3c2)o1 [Lapatinib] (partner 2 µM)
Reply text: 0

Inquiry: Is relative viability of O=c1[nH]c2ccccc2n1C1CCN(CCCC(c2ccc(F)cc2)c2ccc(F)cc2)CC1 [Pimozide] + O=C(CCCCCCC(=O)Nc1ccccc1)NO [Vorinostat] (partner 1 µM) strictly below 0.7?
Reply text: 1
